- targetOrTestSystem: SARS-CoV-2 N LKR+CTD (SARS-CoV-2, UniProt P0DTC9 183-365)
- testDescription: BLI; BLI (Octet RED96e, SSA sensors, biotinylated RNA immobilised): PBS, 0.02% Tween 20, 25 C; pH not stated; 1:1 kinetic fit
- particulars: protein: recombinant; tags: 6xHis-SUMO tag removed by Ulp1; chain copies: 2; label: 5' biotin
Recorded Kd for the following binders
Numeric answer only, unit µM assumed.

AAACGAACUU (ssRNA) [TRS-3 (RNA3)]: 61

Turning now to a further binder:
-- ask Field request: Kd | item: AAACGAAC (ssRNA) [TRS-2 (RNA2)]
-- reply 17
